measurementProtocol: endothelial E-selectin expression blockers – imaging, HUVEC, immunofluorescence, MLSMR starter and 10KST1 sets, primary screen (AID 487);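 note: 100% = median nuclei count of all wells on the same plate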
cond: HUVEC TNFalpha-induced E-selectin immunofluorescence imaging, at 2 µM; measured here: cell number, toxicity
For each entry below, report its nuclei count value.
The answer should read as a number with its unit following.

Please report the recorded nuclei count for CC(NC(=O)c1ccc(F)cc1)C(c1cccs1)N1CCN(C)CC1 (stereo unspecified) .
92.2%

Okay, and CC(=O)Oc1oc(-c2ccccc2)nc1/C=N/c1ccccn1 ?
147%

Okay, and CS(=O)(=O)N1CCc2cc(C(=O)N3CCCCC3)ccc21 ?
83.3%

Okay, and CCN1CCN(Cc2ccccc2NC(=O)Nc2ccc(C)cc2)CC1 ?
94%

Okay, and COc1cc(C(N)=O)ccc1OCc1ccccc1 ?
110%

Okay, and COc1ccc(-c2cc(C(F)F)n3ncc(C(=O)NCC4CCCO4)c3n2)cc1 (stereo unspecified) ?
108%

Okay, and CCOC(=O)c1c(NC(=O)c2ccoc2C)sc2c1CCC2 ?
96.3%

Okay, and NC(=O)c1ccccc1OCCOCCOCCOc1ccccc1C(N)=O ?
141%

Okay, and O=C(Oc1oc(-c2ccco2)nc1C=Nc1ccccc1)c1ccoc1 ?
165%

Okay, and CCOc1cccc(C(=O)Nc2cccc(-c3nc4ncccc4o3)c2C)c1 ?
108%

Okay, and CC(=O)[C@H]1CC[C@H]2[C@@H]3CCC4=CC(=O)CC[C@]4(C)[C@H]3CC[C@]12C ?
125%

---

assaySystem: Voltage-gated potassium channel subunit beta-2 (Rattus norvegicus) (UniProt P62483)
Sequence (P62483 whole entry, looked up): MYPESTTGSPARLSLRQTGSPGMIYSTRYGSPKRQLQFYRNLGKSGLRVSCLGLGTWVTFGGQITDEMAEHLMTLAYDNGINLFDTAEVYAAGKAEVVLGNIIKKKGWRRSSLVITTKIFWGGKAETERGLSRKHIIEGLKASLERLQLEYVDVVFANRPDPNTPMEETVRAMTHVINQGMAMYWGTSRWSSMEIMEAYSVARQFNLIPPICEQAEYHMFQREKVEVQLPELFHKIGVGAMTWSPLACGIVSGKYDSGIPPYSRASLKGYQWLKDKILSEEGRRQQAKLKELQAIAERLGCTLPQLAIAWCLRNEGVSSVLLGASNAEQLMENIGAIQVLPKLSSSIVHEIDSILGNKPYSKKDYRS
measurementProtocol: inhibitors of rat Kvbeta2 reductase activity – biochemical, NADPH fluorescence, primary screen (AID 622);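 note: slope of raw intensity against log time taken from 70 to 1610 s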
cond: recombinant KvBeta, 4-cyanobenzaldehyde reduction, at 10 µM, stronger effect = higher value
property: fluorescence slope
Reply with the value as a number alone.

Please report the recorded fluorescence slope for Fc1c(F)c(F)c(CSc2nc3ccccc3[nH]2)c(F)c1F .
-0.562

Okay, and CCOC(=O)C1CCCN(C(=O)c2ccc(CS(=O)(=O)Cc3ccccc3C)o2)C1 (stereo not given) ?
-0.595

Okay, and N#Cc1c(N)n(CCNC(=O)c2cccs2)c2nc3ccccc3nc12 ?
-0.0517

Okay, and Cn1c(=O)cc(OCC(=O)N2CCN(c3cccc(C(F)(F)F)c3)CC2)c2ccccc21 ?
-0.426

Okay, and O=C(NCC1COCCO1)C1CCN(S(=O)(=O)c2ccccc2)CC1 (stereo not given) ?
-0.557

---

measurementProtocol: inhibitors of TNFa-induced NFkB p65 translocation, primary screen, imaging, HUVEC, MLSMR starter and 10KST1 sets (AID 438);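 note: compound added about 3h40 before a 20 min TNFalpha stimulation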
cond: HUVEC TNFa-induced p65 nuclear translocation; measured here: nuclei count (cytotoxicity indicator), at 2.08 µM
For each entry below, report its cell count value.
Reply with the value as a number alone.

Please report the recorded cell count for COc1ccc(N2CCN(C(=O)CSc3nnc(Cn4nnc5ccccc54)n3C)CC2)cc1 .
525

Okay, and Cc1cccc(-n2c(N)c(C(=O)N3CCN(C)CC3)sc2=S)c1 ?
786

Okay, and C=CCN(CC=C)C(=O)CN1C(=O)c2ccccc2C1=O ?
356

Okay, and CCOC(=O)CN(C)Cc1c[nH]c2ccccc12 ?
442

Okay, and CCOC(=O)c1ccc(NC(=O)NC(C)C2CCCO2)cc1 (stereo unspecified) ?
352

Okay, and CC1(c2ccncc2)Nc2ccccc2-c2nc3ccccc3n21 (stereo unspecified) ?
394

Okay, and O=C(O)CC1CCCC(c2ccccc2)C1=O (stereo unspecified) ?
658

Okay, and COC(=O)c1cc(Br)c(=O)n(CCC2=CCCCC2)c1 ?
559

Okay, and CCOC(=O)c1sc(N2C(=O)C(O)=C(C(=O)c3ccco3)C2c2ccccc2)nc1C (stereo unspecified) ?
425

Okay, and O=C(O)c1c[nH]c2ccc(S(=O)(=O)N3CCN(c4ccc(F)cc4)CC3)cc2c1=O ?
423

Okay, and Nc1nc(SCCOc2ccccc2)n[nH]1 ?
256
